The origin of these recorded values is patent US20150086555A1.

TARGET SYSTEM: recombinant soluble homotrimeric HA of A/duck/Yangzhou/02/05 (H8N4) (Influenza A virus A/duck/Yangzhou/02/2005(H8N4))
PROTOCOL TEXT: HA microarray, BCC supernatant
ASSAY CONTEXT: remark: other sources report otherwise
MEASURED PROPERTY: Trimeric HA Binding: RLU (RLU)
Numbers only, in RLU.

- BINDER: "TCN-531 (5091_H13) (antibody, V domains shown) VH: EVQLVESGGDLVQPGRSLKLSCTGSGFTFGDYGVTWVRQAPGKGLEWVGFIRTRPWGGTADTAASVKGRFTISRDDSKSLAYLQMNSLKTEDTAVYYCCRDAPPNVEVASMTNWYFDLWGRGTLVTVSS VL: DIQLTQSPSSLSASVGDRVTITCRASQGILNCLAWYQQKPGKVPNLLMYAASTLQSGVPSRFSGSGFGTDFTLTISSLQPEDVATYYCQTYGGVSTFGGGTKVEIR"
  QUANTITATIVE RESULT: 3120
- BINDER: "TCN-540 (5060_F05) (antibody, V domains shown) VH: QVQLVQSGGGVVQPGRSLRLSCAASGFTFSSYAMHWVRQAPGKGLEWVAIISYDGNDQYYTDSVKGRFTISRDSSKVYLQMHRLRPEDTAVYYCAKEFETSGYFHGSFDYWGQGILVTVSS VL: QSALTQPASVSGSPGQSITISCTGTSSDVGGYNYVSWYQQHPGKAPKLLIYEVTNWPSGVSNRFSGSKSGNTASLTISGLQAEDEADYYCSSYAGSSTWVFGGGTRVTVL"
  QUANTITATIVE RESULT: 117
- BINDER: "TCN-536 (5095_N01) (antibody, V domains shown) VH: QVQLQQWGAGLLKPSETLSLTCAVYGGSFSVSGYYWSWIRQPPGRGLEWIGEISHGGSTNYNPSLKSRVTISVDTTKNQFSLRLSSVTAADTAVYYCARGTDPDTEVYCRVGNCAAFDYWGQGSLVTVSS VL: EIILAQSPGTLSLSPGERATLSCRASQFVSTRSLAWYQQRPGQAPRLLIYGASSRATGIPDRFSGSGSGTDFTLTISRLEPEDFAVYYCQHYGYSPRYAFGQGSKVEIK"
  QUANTITATIVE RESULT: 436
- BINDER: "TCN-563 (5237_B21) (antibody, V domains shown) VH: QVQLAQSGAEVKRPGSSVKVSCTASGGIFRKNAISWVRQAPGQGLEWMGGIIAVFNTANYAQKFQGRVKITADESGNTAYMELSSLRSDDTAVYYCASHPKYFYGSGSYPDFWGQGTLVTVSS VL: QSALTQPRSVSGSPGQSVTISCTGSSSDVGASNSVSWYQQHPGKAPKLVIYDVTERPSGVPHRFSGSKSGNTASLTVSGLQPEDEADYFCCAYGGKYLVVFGGGTKVTVL"
  QUANTITATIVE RESULT: 46700

Shifting focus to the binder that follows.
Query :: Dear colleague, I am looking for the recorded Trimeric HA Binding: RLU of the following binder: TCN-522 (3212_I12) (antibody, V domains shown) VH: QVQLQQWGAGLLKPSETLSLTCTVSGGSLTDYSWNWIRQPPGKGLEWIGDTLHNGYTNYNPSLRGRVSISIDTSKNQVSLRLTSVTAADTALYYCARGSGGYGGFDYFGKLRTWDFWGQGTLVTVSS VL: DIQLTQSPSSLSASVGDRVTITCRASQGIRNDLGWYQQKPGNAPKRLIFGASSLQSGVPSRFSGSGSGTEFTLTISSLQPEDFATYYCLQHNSYPYTFGQGTKLEIK
Result :: 502
